# TESTED_ON: human GLP-1 receptor (human, UniProt P43220 24-463)
# ASSAY_DETAILS: cell-based or functional assay
Numbered stars: 1 amine (or outer) side, 2 acyl side, 3 side chain; on linkers, the order of the positions; unused ones are H or OH. Square brackets hold non-standard residues; d marks the D form. Side chains are listed from the residue outwards. Ends that are not written are not given here. * marks the point of attachment. C18 diacid = O=C(O)CCCCCCCCCCCCCCCCC(=O)*; γGlu = O=C(O)[C@H](CCC(=O)[*:2])N[*:1]; Palmitoyl = CCCCCCCCCCCCCCCC(=O)*; AEEA = NCCOCCOCC(=O)O; Aib = CC(C)(N)C(=O)O
# EC50 of GLP-1 receptor mediated cAMP production listing for each entry below
Note: unit nM is implicit; provide only the numeric part.

# BINDER, DATA_VALUE
measured = [
    ("H[Aib]QGTFTSDYSKYLDEKRAK([AEEA-AEEA-γGlu-C18 diacid])EFIAWLEAGGPSSG-NH2 (not fully specified; printed as HAibQGTFTSDYSKYLDEKRAK**EFIAWLEAGGPSSG-Amid) [Compound 50]", 0.119),
    ("H[Aib]QGTFTSDYSKYLDERKAK([AEEA-AEEA-γGlu-C18 diacid])EFVEWLEAGGPSSG-NH2 (not fully specified; printed as HAibQGTFTSDYSKYLDERKAK**EFVEWLEAGGPSSG-Amid) [Compound 42]", 0.52),
    ("HSQGTFTSDYSKYLDERAAK([AEEA-AEEA-γGlu-C18 diacid])EFIAWLEGGPSSG-NH2 (not fully specified; printed as HSQGTFTSDYSKYLDERAAK**EFIAWLEGGPSSG-Amid) [Compound 38]", 0.716),
]

Then this binder:
Consider the binder shown here: H[Aib]QGTFTSDYSKYLEEKRAK([γGlu-γGlu-Palmitoyl])EFVEWLEGGPSSG-NH2 (not fully specified; printed as HAibQGTFTSDYSKYLEEKRAK*EFVEWLEGGPSSG-Amid) [Compound 76] What is its recorded EC50 of GLP-1 receptor mediated cAMP production? 0.22
